- System: A-427
- TEST_METHOD_NOTES: MTT cell viability assay
- Type: cell-based
- EXPERIMENTAL_CONTEXT: Homo sapiens, 48 h, normoxic (19% O2), read-out: IC50 MTT-N mean
- Protocol: Distinct MTT cell viability and crystal violet cell proliferation assays were performed to assess the cytotoxicity of the compounds 1–6 on 14 human cancer cell lines. […] The formazan can be photometrically detected after solubilization and allows for indirect conclusions about the viability of the cells as an IC50 value. […] The effect of the pentathiepins on the viability of the cell lines was assessed via an MTT assay, performed as previously described. […]
Label Satisfied when IC50 < 1 µM; otherwise Not satisfied.

## Input I'd appreciate it if you could check whether CCOc1c2c(c3ccc(C(=O)N4CCOCC4)cn13)SSSSS2 [Compound 3] has IC50 smaller than 1 µM.
## Output Satisfied

## Input What about CCOc1c2c(c3ccc(C(=O)N4CCN(S(=O)(=O)c5ccc(C)cc5)CC4)cn13)SSSSS2 [Compound 6] ?
## Output Not satisfied

## Input Next: CCOc1c2c(c3ccc(C(=O)N4CCCCC4)cn13)SSSSS2 [Compound 2]
## Output Not satisfied

## Input Check CCOc1c2c(c3ccc(C(=O)N(CC)CC)cn13)SSSSS2 [Compound 4] too.
## Output Not satisfied

## Input Param item: CCOc1c2c(c3ccc(C(=O)N4CCN(C(=O)c5ccc(F)cc5)CC4)cn13)SSSSS2 [Compound 5]
## Output Satisfied

## Input Try the compound CCOc1c2c(c3cnc4[nH]c(-c5ccc(OC)cc5)cc4n13)SSSSS2 [Compound 1]
## Output Satisfied
